Reference for the values: patent US20070280945A1

systemName: T1, hIL-6R recombinant protein (plate-coated, Example 5) (human, UniProt P08887 20-358, limits assumed)
T1 construct: also called antigen
T1 sequence: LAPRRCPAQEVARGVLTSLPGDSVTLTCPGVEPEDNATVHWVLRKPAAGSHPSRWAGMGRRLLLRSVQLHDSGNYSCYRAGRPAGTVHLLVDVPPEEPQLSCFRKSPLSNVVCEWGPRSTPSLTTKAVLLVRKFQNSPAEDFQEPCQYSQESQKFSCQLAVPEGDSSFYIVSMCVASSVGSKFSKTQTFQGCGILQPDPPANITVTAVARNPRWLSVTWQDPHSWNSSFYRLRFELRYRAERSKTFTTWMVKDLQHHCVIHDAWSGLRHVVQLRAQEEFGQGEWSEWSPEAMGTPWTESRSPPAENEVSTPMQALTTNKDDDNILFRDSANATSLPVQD
methodDescription: SPR (BIAcore) competition on hIL-6R; competitor: control antibody
recordedMetric: % reduction of binding by control antibody (%)
Just the number in %, nothing appended.

Record excerpt, results attached:
VQ8A9-6 (antibody, V domains shown, Human variable regions with mouse constant region (hybridoma-derived chimeric antibody); also called VQ8A9-6 mIgG1) VH: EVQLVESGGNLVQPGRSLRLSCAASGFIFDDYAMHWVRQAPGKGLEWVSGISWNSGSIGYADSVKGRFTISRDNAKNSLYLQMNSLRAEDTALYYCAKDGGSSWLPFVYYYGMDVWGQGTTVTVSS VL: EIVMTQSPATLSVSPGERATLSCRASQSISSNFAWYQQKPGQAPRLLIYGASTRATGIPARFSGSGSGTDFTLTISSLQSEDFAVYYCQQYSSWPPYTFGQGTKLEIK: 26
VV1G4-7 (antibody, IgG2a, V domains shown, Human variable regions with mouse constant region) VH: QVQLVQSGAEVKEPGASVKVSCKASGYTFTSYDIIWVRQATGQGLEWMGWMNPNSGNTGYTQNLQGRVTLTRNTSITTVYMELSSLSSEDTAVYYCARDYSSHYYGLDVWGQGTTVTVSS VL: DIQLTQSPSFLSTSIGDRVTITCWASQDISNYLAWYQQKPGKAPKLLIFVASTLQSGVPSRFSGSGSGTEFTLTISSLQPEDFATYYCQQFNSYPLTFGGGTKVEIK: 12

Q: Param item = VV6C10-1 (antibody, V domains shown, Human variable regions with mouse constant region) VH: EVQLVESGGGLVQPGRSLRLSCAASGFTFDDYALHWVRQAPGKGLEWVSGVSWNGGRIGYADSVKGRFTISRDNAKNSLFLQMNSLRVEDTALYYCAKGRDAFDIWGQGTLVTVSS VL: EIVLTQSPATLSLSPGERATLSCRASQSVSSYLAWYQQKPGQAPRLLIYDASNRATGIPARFSGSGSGTDFTLTISSLEPEDFAFYYCQQRNNRPPFTFGPGTKVDVR ; retrieve measured % reduction of binding by control antibody.
Ans: 90
